Please provide measured TGI for the entries that follow.
Tested on: HCC-2998 colon
Test: NCI tumour cell line growth inhibition, 48 h

Q: Give me measured TGI, please, for this compound: Cc1ccc2nc(CC(=O)c3ccc4ccccc4c3)c(=O)[nH]c2c1
Result: > 100 µM

Q: Give me measured TGI, please, for this compound: C/C=C/C=C\C(=O)C1c2cccc(O)c2C(=O)c2c(O)cc(C)cc21 (centres undefined)
Result: 1.6 µM

Q: Give me measured TGI, please, for this compound: CC(C(=O)N1C(=O)N(C(=O)[C@H](C)C(O)c2ccccc2)[C@H](c2ccccc2)[C@H]1c1ccccc1)[C@@H](O)c1ccccc1 (some centres undefined)
Result: > 100 µM

Q: Give me measured TGI, please, for this compound: O=C(Nc1cccc(-n2cc(-c3ccncc3)c(-c3ccc(O)c(Cl)c3)n2)c1)c1ccc(N2CCOCC2)c(C(F)(F)F)c1
Result: > 50 µM
